# experimental_system: 5-hydroxytryptamine receptor 1A (Rattus norvegicus)
# Sequence (P19327 whole entry): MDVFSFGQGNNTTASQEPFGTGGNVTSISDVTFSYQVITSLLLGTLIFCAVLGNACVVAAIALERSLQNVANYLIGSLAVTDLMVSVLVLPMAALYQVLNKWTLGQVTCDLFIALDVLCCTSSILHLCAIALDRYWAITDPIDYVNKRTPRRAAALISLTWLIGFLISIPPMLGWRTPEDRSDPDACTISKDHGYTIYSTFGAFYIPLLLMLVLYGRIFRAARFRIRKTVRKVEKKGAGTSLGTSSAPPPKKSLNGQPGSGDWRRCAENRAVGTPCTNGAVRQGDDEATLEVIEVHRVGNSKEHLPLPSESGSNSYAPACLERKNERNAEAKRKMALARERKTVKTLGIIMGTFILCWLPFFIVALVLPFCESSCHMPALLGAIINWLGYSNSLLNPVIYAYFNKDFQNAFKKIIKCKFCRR
pKi: −log10 of the molar value.
# cutoff 8 applies to pKi; >= gives t, < gives f

| compound | experimental_system | class_assignment |
| --- | --- | --- |
| COc1ccccc1N1CCN(CCCCN2C(=O)C3C4C=CC(C5CC45)C3C2=O)CC1.Cl (stereo not drawn) | 5-hydroxytryptamine receptor 1A (Rattus norvegicus) | t |
| O=C1C2C3CCC(C4CC43)C2C(=O)N1CCCCN1CCN(c2nccnc2Cl)CC1 (stereo not drawn) | 5-hydroxytryptamine receptor 1A (Rattus norvegicus) | f |

--- query ---
Could you tell me if the measured pKi of Cl.O=C1C2C3C=CC(C4CC34)C2C(=O)N1CCCCN1CCN(c2cccc(C(F)(F)F)c2)CC1 (stereo not drawn) reaches 8 or more? f
